Please provide measured IKZF2 Dmax for the entries that follow.
- target.under.test: IKZF2 (Homo sapiens, UniProt Q96SW2+Q9UKS7)
- Sequence (Q9UKS7 1-500 isoform Q9UKS7-2): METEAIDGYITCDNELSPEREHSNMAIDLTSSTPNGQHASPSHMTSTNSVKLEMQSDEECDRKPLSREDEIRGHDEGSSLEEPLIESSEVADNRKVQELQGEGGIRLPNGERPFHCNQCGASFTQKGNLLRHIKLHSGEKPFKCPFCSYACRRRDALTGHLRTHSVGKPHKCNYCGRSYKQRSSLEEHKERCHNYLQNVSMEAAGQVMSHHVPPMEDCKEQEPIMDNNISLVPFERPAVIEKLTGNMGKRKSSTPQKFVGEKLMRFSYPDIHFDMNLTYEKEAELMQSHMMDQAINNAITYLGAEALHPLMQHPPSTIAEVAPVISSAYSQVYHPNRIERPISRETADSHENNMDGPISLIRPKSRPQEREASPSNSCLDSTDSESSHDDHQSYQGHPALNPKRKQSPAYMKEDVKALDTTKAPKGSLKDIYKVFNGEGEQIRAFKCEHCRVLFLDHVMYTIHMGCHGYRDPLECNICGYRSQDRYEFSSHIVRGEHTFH
- Sequence (Q96SW2 whole entry): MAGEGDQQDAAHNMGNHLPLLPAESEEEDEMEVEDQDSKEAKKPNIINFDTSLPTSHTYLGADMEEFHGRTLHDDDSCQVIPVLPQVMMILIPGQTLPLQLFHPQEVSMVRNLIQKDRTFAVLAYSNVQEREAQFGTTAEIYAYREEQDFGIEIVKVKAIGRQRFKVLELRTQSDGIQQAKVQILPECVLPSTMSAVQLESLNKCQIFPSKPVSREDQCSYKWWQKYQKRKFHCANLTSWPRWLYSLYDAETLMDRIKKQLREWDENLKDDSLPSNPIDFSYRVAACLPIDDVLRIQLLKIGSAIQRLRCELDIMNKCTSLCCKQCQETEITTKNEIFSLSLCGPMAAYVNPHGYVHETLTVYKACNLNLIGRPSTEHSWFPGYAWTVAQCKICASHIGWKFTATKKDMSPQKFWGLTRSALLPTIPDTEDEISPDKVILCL
- Sequence (Q16531 whole entry partner): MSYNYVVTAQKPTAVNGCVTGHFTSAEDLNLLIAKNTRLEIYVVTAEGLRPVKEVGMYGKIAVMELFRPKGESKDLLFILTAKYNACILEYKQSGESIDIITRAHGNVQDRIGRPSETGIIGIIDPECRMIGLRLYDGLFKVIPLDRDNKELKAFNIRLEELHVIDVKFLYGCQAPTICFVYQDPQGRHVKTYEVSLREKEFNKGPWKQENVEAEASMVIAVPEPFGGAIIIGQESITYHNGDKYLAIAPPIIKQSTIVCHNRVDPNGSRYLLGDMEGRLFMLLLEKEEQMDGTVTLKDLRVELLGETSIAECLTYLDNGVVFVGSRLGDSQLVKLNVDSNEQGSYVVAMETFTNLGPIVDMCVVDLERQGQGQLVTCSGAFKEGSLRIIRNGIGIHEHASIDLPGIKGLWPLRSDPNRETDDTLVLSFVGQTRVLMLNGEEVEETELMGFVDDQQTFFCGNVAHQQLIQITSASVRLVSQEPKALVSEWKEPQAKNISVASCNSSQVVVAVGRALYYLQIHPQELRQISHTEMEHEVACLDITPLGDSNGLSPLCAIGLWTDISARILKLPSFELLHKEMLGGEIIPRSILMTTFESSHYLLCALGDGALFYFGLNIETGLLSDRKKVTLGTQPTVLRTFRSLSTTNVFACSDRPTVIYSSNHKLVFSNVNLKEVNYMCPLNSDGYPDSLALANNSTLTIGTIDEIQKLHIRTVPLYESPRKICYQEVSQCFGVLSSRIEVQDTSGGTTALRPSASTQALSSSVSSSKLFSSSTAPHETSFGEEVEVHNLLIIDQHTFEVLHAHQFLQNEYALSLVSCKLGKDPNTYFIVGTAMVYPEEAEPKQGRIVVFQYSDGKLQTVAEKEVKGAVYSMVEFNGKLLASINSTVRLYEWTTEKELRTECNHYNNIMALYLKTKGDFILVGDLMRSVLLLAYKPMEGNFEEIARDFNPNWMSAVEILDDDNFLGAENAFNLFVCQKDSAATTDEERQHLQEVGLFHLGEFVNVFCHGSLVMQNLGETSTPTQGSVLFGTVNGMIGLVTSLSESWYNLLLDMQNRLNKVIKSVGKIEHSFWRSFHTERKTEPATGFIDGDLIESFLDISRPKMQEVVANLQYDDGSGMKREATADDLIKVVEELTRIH
- test: HEK293 HiBiT in vitro degradation of IKZF2
- Type: cell-based
- Design: expressed in transfected cells
- run.conditions: HEK293 HiBiT; maximum degradation at the highest concentration tested
Quick note: give the figure in %, leave out the unit.

// query Identify measured IKZF2 Dmax obtained with IKZF2 (Homo sapiens, UniProt Q96SW2+Q9UKS7) for O=C1CCC(N2Cc3cc(C[C@H]4CCCC[C@@H]4NC4CCCCC4(F)F)ccc3C2=O)C(=O)N1 (stereo partly shown) [Example 183] .
// result 81

// query Identify measured IKZF2 Dmax obtained with IKZF2 (Homo sapiens, UniProt Q96SW2+Q9UKS7) for O=C1CCC(N2Cc3cc(C[C@H]4CCCC[C@@H]4NC4CCc5cn[nH]c5C4)ccc3C2=O)C(=O)N1 (single isomer, unassigned) [Example 359] .
// result 101

// query Identify measured IKZF2 Dmax obtained with IKZF2 (Homo sapiens, UniProt Q96SW2+Q9UKS7) for COCC1CCC(N[C@H]2CCCO[C@@H]2Cc2ccc3c(c2F)CN(C2CCC(=O)NC2=O)C3=O)CC1 (single isomer, unassigned) [Example 265] .
// result 96

// query Identify measured IKZF2 Dmax obtained with IKZF2 (Homo sapiens, UniProt Q96SW2+Q9UKS7) for O=C1CCC(N2Cc3cc(C[C@H]4OCCC[C@@H]4NC4CCCCC4)ccc3C2=O)C(=O)N1 (stereo partly shown) [Example 179] .
// result 88

// query Identify measured IKZF2 Dmax obtained with IKZF2 (Homo sapiens, UniProt Q96SW2+Q9UKS7) for O=C1CCC(N2Cc3c(ccc(C[C@H]4CCCC[C@@H]4NC4CCOC4)c3F)C2=O)C(=O)N1 (stereo partly shown) [Example 190] .
// result 97

// query Identify measured IKZF2 Dmax obtained with IKZF2 (Homo sapiens, UniProt Q96SW2+Q9UKS7) for CC(N[C@H]1CCCC[C@@H]1Cc1ccc2c(c1)CN(C1CCC(=O)NC1=O)C2=O)C1CCS(=O)(=O)CC1 (single isomer, unassigned) [Example 371] .
// result 94

// query Identify measured IKZF2 Dmax obtained with IKZF2 (Homo sapiens, UniProt Q96SW2+Q9UKS7) for CC(N[C@H]1CCCC[C@@H]1Cc1ccc2c(c1)CN(C1CCC(=O)NC1=O)C2=O)C1CCC1 (stereo partly shown) [Example 219] .
// result 95

// query Identify measured IKZF2 Dmax obtained with IKZF2 (Homo sapiens, UniProt Q96SW2+Q9UKS7) for CC(CC(F)(F)F)N[C@H]1CCCC[C@@H]1Cc1ccc2c(c1)CN(C1CCC(=O)NC1=O)C2=O (single isomer, unassigned) [Example 250] .
// result 97

// query Identify measured IKZF2 Dmax obtained with IKZF2 (Homo sapiens, UniProt Q96SW2+Q9UKS7) for O=C1CCC(N2Cc3c(ccc(C[C@H]4CCCC[C@@H]4NCC4CCOCC4)c3F)C2=O)C(=O)N1 (stereo partly shown) [Example 187] .
// result 96

// query Identify measured IKZF2 Dmax obtained with IKZF2 (Homo sapiens, UniProt Q96SW2+Q9UKS7) for CCC(C)N[C@H]1CCCC[C@@H]1Cc1ccc2c(c1)CN(C1CCC(=O)NC1=O)C2=O (single isomer, unassigned) [Example 300] .
// result 97

// query Identify measured IKZF2 Dmax obtained with IKZF2 (Homo sapiens, UniProt Q96SW2+Q9UKS7) for O=C1CCC(N2Cc3c(ccc(C[C@H]4OCCC[C@@H]4NC4CCOC4)c3F)C2=O)C(=O)N1 (single isomer, unassigned) [Example 297] .
// result 84

// query Identify measured IKZF2 Dmax obtained with IKZF2 (Homo sapiens, UniProt Q96SW2+Q9UKS7) for O=C1CCC(N2Cc3c(ccc(C[C@H]4OCCC[C@@H]4NC4CCc5cn[nH]c5C4)c3F)C2=O)C(=O)N1 (single isomer, unassigned) [Example 361] .
// result 102

// query Identify measured IKZF2 Dmax obtained with IKZF2 (Homo sapiens, UniProt Q96SW2+Q9UKS7) for O=C1CCC(N2Cc3c(ccc(C[C@H]4CCCC[C@@H]4NC4CCOC4)c3F)C2=O)C(=O)N1 (stereo partly shown) [Example 118] .
// result 97
